pIC50: −log10 of the molar value.
Here, molecules appear alongside pIC50 reported for Histone deacetylase 1 (Homo sapiens) in the literature.
Endpoint name: pIC50

Oc1ccccc1C=NNc1nc2ccccc2nc1Cl; 5.38

P = O=C(CCCCCNC(=O)c1ccc(-c2ccccc2)cc1)NCCO
Q = COc1cc(Nc2nc(N3CCN(c4ncc(C(=O)NO)cn4)CC3)ncc2Cl)cc(OC)c1
R = COc1cc(/C=C/C(=O)c2ccc(OCCCCC(=O)NO)cc2)cc(OC)c1OC
Challenge: List from greatest to least pIC50. Please list the labels according to the requested order.
Response given: R, Q, P
(R: 6.92, Q: 6.16, P: 4.25)

###

pIC50: −log10 of the molar value.
Here, compounds appear alongside pIC50 reported for UniProtKB Q13547 in the literature.
Sequence (Q13547 whole entry): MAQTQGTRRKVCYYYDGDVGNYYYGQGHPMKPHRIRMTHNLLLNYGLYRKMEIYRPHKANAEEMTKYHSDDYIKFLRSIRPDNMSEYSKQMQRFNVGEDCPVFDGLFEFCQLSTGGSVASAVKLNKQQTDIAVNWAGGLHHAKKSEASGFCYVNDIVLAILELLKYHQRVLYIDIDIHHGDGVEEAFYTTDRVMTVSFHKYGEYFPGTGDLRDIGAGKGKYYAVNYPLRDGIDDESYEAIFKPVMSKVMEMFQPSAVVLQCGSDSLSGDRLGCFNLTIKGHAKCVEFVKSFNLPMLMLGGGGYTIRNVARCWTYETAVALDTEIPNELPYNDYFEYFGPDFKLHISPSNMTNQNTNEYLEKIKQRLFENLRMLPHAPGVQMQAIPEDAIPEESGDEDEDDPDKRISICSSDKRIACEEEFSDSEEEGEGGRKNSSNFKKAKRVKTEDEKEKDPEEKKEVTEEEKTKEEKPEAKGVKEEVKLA
Endpoint name: pIC50

CC(=NNc1nc2ccccc2nc1Cl)c1ccccc1O; 5.57

A = O=C(NO)c1ccc(-c2nc3ccccc3s2)cc1
B = CN(C)c1ccc(C=NNc2nc3ccccc3nc2Cl)cc1
C = Cc1cccn2c(=O)c3cc(ONCCCCCC(=O)NO)c(=N)n(CCc4ccc(Cl)c(F)c4)c3nc12
Challenge: List from greatest to least pIC50. Please list the labels according to the requested order.
Response given: C, A, B
(C: 7.94, A: 7.07, B: 5.48)

###

Here, molecules appear alongside IC50 reported for Histone deacetylase 1 (Homo sapiens) in the literature.
Endpoint name: IC50 (nM)

Please review the following examples before continuing.
COc1ccc(-c2nc3c(c(-c4ccc(OC)cc4)n2)CCN(C(=O)CCCCCCC(=O)NO)C3)cc1; 472
O=C(CCCCCCC(=O)N1CCc2c(nc(-c3ccc(C(F)(F)F)cc3)nc2-c2ccc(C(F)(F)F)cc2)C1)NO; 551
Cc1cccn2c(=O)c3cc(ONCCCCCC(=O)NO)c(=N)n(CCc4cccs4)c3nc12; 13.7

a = O=C(CCCCO/N=C/c1ccc(-c2ccccc2)cc1)NO
b = O=C(CCCCCCC(=O)Nc1ccc(Cl)c(C(=O)Nc2ccc(NC(=O)c3cc(Cl)ccc3Cl)cc2)c1)NO
c = CCn1c(N)c(C(c2ccc([N+](=O)[O-])cc2)c2c(N)n(CC)c(=S)[nH]c2=O)c(=O)[nH]c1=S
d = COc1cc(/C=C/C(=O)c2ccc(OCCCCCCC(=O)NO)cc2)cc(OC)c1OC
Challenge: List from greatest to least IC50. Please list the labels according to the requested order.
Response given: c, a, b, d
(c: 4000 nM, a: 698 nM, b: 285 nM, d: 70 nM)

###

Here, molecules appear alongside IC50 reported for UniProt:Q13547 in the literature.
Endpoint name: IC50 (nM)

Please review the following examples before continuing.
CCN(CC)CCn1c(=N)c(ONCCCCCC(=O)NO)cc2c(=O)n3cccc(C)c3nc21; 18.4
CCCn1c(N)c(C(c2ccc(Cl)cc2)c2c(N)n(CCC)c(=O)[nH]c2=O)c(=O)[nH]c1=O; 108
COc1ccc(C=NNc2nc3ccccc3nc2Cl)cc1OC; 2170
Cc1cc(C)nc(SCC(=O)Nc2ncc(Cc3cccc(OCc4cn(CCOCCOCCOCCOCCC(=O)Nc5ccc(C(=O)NCc6ccc(C(=O)NO)cc6)cc5)nn4)c3)s2)n1; 600

A = O=C(CCCCO/N=C/c1ccc2ccccc2c1)NO
B = COc1cc(C(=O)NC(=Cc2ccc(Cl)cc2)C(=O)NNC(=O)/C(=C/c2ccco2)NC(=O)c2cc(OC)c(OC)c(OC)c2)cc(OC)c1OC
C = COc1ccccc1C=NNc1nc2ccccc2nc1Cl
Challenge: List from greatest to least IC50. Please list the labels according to the requested order.
Response given: A, C, B
(A: 6040 nM, C: 3290 nM, B: 47 nM)
